Below are IC50 values recorded for Glycogen phosphorylase, muscle form (Oryctolagus cuniculus, UniProt P00489).
Note: unit mM is implicit; provide only the numeric part.

Exercise: Note IC50 for the compound shown: CC1(C)CN=C(c2ccccc2)NC1
Solution: 1.2

Exercise: State its IC50 for this compound: CC(C)N1CCCN=C1c1ccccc1
Solution: 7.2

Exercise: Please give measured IC50 of the following entry: COC(=O)[C@@H]1CSC(c2ccccc2)=N1
Solution: 0.025

Exercise: Annotate the compound CC(C)CC(N)C(=O)N1CCOCC1 (centres undefined) with its measured IC50.
Solution: 6.5

###

# System Name: Glycogen phosphorylase, muscle form (Oryctolagus cuniculus) (UniProt P00489)
# Sequence (P00489 whole entry): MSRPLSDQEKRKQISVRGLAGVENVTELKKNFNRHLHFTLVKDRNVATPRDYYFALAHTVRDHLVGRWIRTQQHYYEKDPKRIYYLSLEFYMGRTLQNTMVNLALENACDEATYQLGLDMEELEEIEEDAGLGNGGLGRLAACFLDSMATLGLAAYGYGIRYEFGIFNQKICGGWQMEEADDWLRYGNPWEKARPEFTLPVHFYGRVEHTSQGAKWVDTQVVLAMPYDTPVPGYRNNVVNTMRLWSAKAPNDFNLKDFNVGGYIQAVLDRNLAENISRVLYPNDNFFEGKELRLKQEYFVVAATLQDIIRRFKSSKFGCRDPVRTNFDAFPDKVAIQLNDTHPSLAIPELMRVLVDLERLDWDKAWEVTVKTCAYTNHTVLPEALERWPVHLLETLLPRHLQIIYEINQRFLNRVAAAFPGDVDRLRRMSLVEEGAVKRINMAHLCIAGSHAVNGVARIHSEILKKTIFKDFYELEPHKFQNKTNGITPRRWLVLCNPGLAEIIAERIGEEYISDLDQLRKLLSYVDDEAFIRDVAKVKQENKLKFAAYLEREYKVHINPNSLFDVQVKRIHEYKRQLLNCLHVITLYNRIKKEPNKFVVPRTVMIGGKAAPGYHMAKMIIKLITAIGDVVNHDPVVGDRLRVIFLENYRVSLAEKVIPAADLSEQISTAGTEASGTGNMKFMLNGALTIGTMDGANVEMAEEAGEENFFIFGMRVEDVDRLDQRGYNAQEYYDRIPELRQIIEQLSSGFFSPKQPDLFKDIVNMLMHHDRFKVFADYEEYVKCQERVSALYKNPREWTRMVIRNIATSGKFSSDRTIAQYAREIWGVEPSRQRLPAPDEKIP
# Assay Procedure: Inhibition of rabbit muscle glycogen phosphorylase a assessed as inhibition of release of phosphate from glucose-1-phosphate at 222 mM after 30 mins by spectrophotometry
Reported Property: inhibition (%)
Entry rule: numbers only, all in %.

Exercise: Name the recorded inhibition of the item NC(CCC(=O)O)C(=O)N1CCOCC1 (centres undefined) in your answer.
Solution: 25

Exercise: Could you please provide reported inhibition for c1ccc(C2=NCCCN2)cc1 ? Thanks!
Solution: 99

Exercise: // Input: NC(Cc1ccccc1)C(=O)N1CCOCC1 (centres undefined) . Output its inhibition only.
Solution: 20

Exercise: # return recorded inhibition for input O=C(NCCCCC(NC(=O)OCc1ccccc1)C(=O)N1CCOCC1)OCc1ccccc1 (centres undefined)
Solution: 5
